test system: ACHN renal; test: NCI tumour cell line growth inhibition, 48 h
Exercise: for every item that follows, state its recorded TGI.

The following molecules have reported results that may help.
- Structure String: "O=S(=O)(O)c1cc(O)c(N=Nc2ccc(O)cc2O)c2ccccc12"
  Target Desc: "ACHN renal"
  Reported: "> 100 µM"
- Structure String: "COc1cc2c3c(n(C)c(=O)c2cc1OC)-c1cc2c(cc1/C3=C\\CCCI)OCO2"
  Target Desc: "ACHN renal"
  Reported: "> 85.3 µM"

Read the next record carefully.
Dear colleague, I am looking for the recorded TGI of the following molecule: `COC(=O)N/N=C(\C)c1c(O)cc(C)oc1=O` > 100 µM

###

tested on: NCI-H23 lung; assay: NCI tumour cell line growth inhibition, 48 h; in the data active = GI50 below about 0.43 µM; inactive = the rest
Please reply with one of these outcomes: 1 for active, -1 for inactive

Which outcome was entered for the compound `CCOC(=O)c1cc2c(cc1Cl)SC(=Nc1ccccc1)N(S(=O)(=O)c1ccc(Cl)cc1)S2(=O)=O` in this test? -1

Kindly provide the recorded test outcome for the following compound: `C[C@]12CC[C@H]3[C@@H](CC=C4C[C@@H](N5CCCC5)CC[C@@]43C)[C@@H]1C/C(=C\c1cccc(OCCN3CCOCC3)c1)[C@@H]2O` -1

Any idea what this test logged for CC1C(C)N(C(=O)CCl)c2ccccc2N1C(=O)CCl (stereo not given) ? -1

Which result was noted for this compound in the test: `COC12C=C/C(=C(/C(=O)OCc3ccccn3)C(=O)CCCCCCCCC3(OC)C=C/C(=C(/C(=O)OCc4ccccn4)C(=O)CCCCCCCC1)O3)O2` 1

Kindly provide the recorded test outcome for the following compound: `CCN(CC)CCCNc1cc(OC)cc2nc3cc(Cl)ccc3nc12` -1

###

tested on: UO-31 renal; assay: NCI tumour cell line growth inhibition, 48 h
Result Type: TGI

- Molecule: "CC(C)(C)OC(=O)CN1CCNCCN(CC(=O)OC(C)(C)C)CCNCC1"
  TGI: "> 100 µM"
- Molecule: "CCOP(=O)(OCC)C1CCCOC1=O (configuration not stated)"
  TGI: "> 100 µM"
- Molecule: "Nc1ccc(C(=O)N/C(=C\\c2cccc([N+](=O)[O-])c2)c2nc3[nH]c(=S)[nH]c(=O)c3[nH]2)cc1"
  TGI: "> 100 µM"

Answer for every listed entry: what is its TGI? The entries follow.
1. Cc1cc2c(cc1Cl)S/C(=C/C(=O)O)C(Nc1ccc3ncsc3c1)=NS2(=O)=O
2. COc1ccc2c(c1OC)CO[C@@H]2[C@H]1c2c(cc3c(c2OC)OCO3)CCN1S(=O)(=O)c1cn(C)cn1
3. CC1(C)CCC(C)(C)C1C(=O)NC(O)C(=O)O (configuration not stated)
4. COc1ccc(N=NC(=O)NC(CC(C)C)C(N)=O)cc1 (configuration not stated)
5. COc1ccc(/C(COc2ccc3oc(-c4ccccc4)cc(=O)c3c2)=N\O)cc1
6. COc1ccccc1NC(=O)CC(=O)N1N=C(N2c3ccccc3Sc3ccccc32)CC1c1ccccc1 (configuration not stated)

1. > 50.7 µM
2. > 100 µM
3. > 100 µM
4. > 65.4 µM
5. > 50 µM
6. > 100 µM

Would you be so kind as to report TGI for each listed record?
1. Nc1nc([Se])c2ncn(C3OC(CO)C(O)C3O)c2n1 (configuration not stated)
2. Cc1oc2c(c1C)S(=O)(=O)C(C#N)=C(N(C)C)N2
3. Nc1ncn2c(n1)nc1ccccc12
4. COc1ccc(-c2nc(-c3ccc(C)cc3)cn3ccnc23)cc1
5. Cc1n[nH]c(=O)n1/N=C\c1ccccc1
6. S=c1[nH]n2c(CCCCCCCCc3nnc4sc(=S)[nH]n34)nnc2s1

1. > 100 µM
2. > 100 µM
3. > 100 µM
4. > 50 µM
5. > 100 µM
6. > 100 µM

Respectfully, I request TGI for each entry included below.
1. COc1ccc2c(c1)[nH]c(=O)c1c3cccc(F)c3cn21
2. C[C@@H]1C(=O)C[C@H]2C(C)(C)CCC[C@]2(C)[C@@]1(O)CCc1ccoc1
3. C=C(NC(=O)C(=C)NC(=O)c1csc(C2=NC3c4csc(n4)C4NC(=O)c5csc(n5)C(C(C)(O)C(C)O)NC(=O)C5CSC(=N5)/C(=C/C)NC(=O)C(C(C)O)NC(=O)c5csc(n5)C3(CC2)NC(=O)C(C)NC(=O)C(=C)NC(=O)C(C)NC(=O)C(C(C)CC)NC2C=Cc3c(C(C)O)cc(nc3C2O)C(=O)OC4C)n1)C(N)=O (configuration not stated)
4. Nc1[nH]nc2nc3ccccc3nc12

1. > 70.6 µM
2. > 100 µM
3. > 100 µM
4. > 100 µM

Items follow; give TGI for each.
1. COCN1COCN=C1NC#N
2. Cc1ccc(C(=O)Nc2ccc(CP(=O)(O)O)cc2CP(=O)(O)O)cc1NC(=O)Nc1cc(C(=O)Nc2ccc(CP(=O)(O)O)cc2CP(=O)(O)O)ccc1C
3. COC(=O)C1=C(O)[C@H](C(=O)OC)C2(O)C(C(=O)OC)[C@H](c3ccc(OC(=O)C(C)c4ccc(CC(C)C)cc4)cc3)C[C@@H]1[C@@H]2C(=O)OC (some centres not stated)

1. > 100 µM
2. > 100 µM
3. > 50 µM

###

test system: RPMI-8226 leukemia; test: NCI tumour cell line growth inhibition, 48 h
Provide the recorded GI50 for the entries that follow.

Solved cases (3 shown):
- Compound: "C[CH2][Ge]([CH2]C)([CH2]C)[O]C(=O)C(OC(C)=O)c1ccccc1 (centres undefined)"
  Target Desc: "RPMI-8226 leukemia"
  Reported: "31000 nM"
- Compound: "COCc1c(-c2cc3cc(C)cc(OC)c3s2)c2c(N)ncnn2c1CN1CCNC(=O)C1"
  Target Desc: "RPMI-8226 leukemia"
  Reported: "1580 nM"
- Compound: "COc1cccc(CC(C)=C(c2ccc(OCCN3CCCCC3)cc2)c2ccc(OCCN3CCCCC3)cc2)c1"
  Target Desc: "RPMI-8226 leukemia"
  Reported: "1620 nM"

Now consider a different compound.
Look up GI50 for this compound: `CCN(CC)CCCNc1cc(OC)cc2nc3cc(Cl)ccc3nc12` 2530 nM

###

system: SK-MEL-28 melanoma; assay: NCI tumour cell line growth inhibition, 48 h
Would you mind telling me the reported GI50 of each entry?

Take a look at these entries with their results.
- Compound: "COc1cc(/C=C/C(=O)/C=C/c2ccc(-n3ccnc3C)cc2)ccc1O"
  GI50: "2.18 µM"
- Compound: "COc1ccc2c(c1)nc(C(=O)c1ccco1)c(C(F)(F)F)[n+]2[O-]"
  GI50: "> 100 µM"
- Compound: "CC1=C(c2ccccc2)C(O)(c2ccccc2)C(C)C1=O (stereo not given)"
  GI50: "25.5 µM"

Dear colleague, could you send me GI50 for each of the items below? Thanks.
1. COc1cccc(CC(C)=C(c2ccc(OCCN3CCCCC3)cc2)c2ccc(OCCN3CCCCC3)cc2)c1
2. CC1=C2[C@@H](CC1)[C@]1(C)O[C@@](C(C)C)(C[C@H]1OC(=O)CO)[C@H]2OC(=O)C1CC1c1ccccc1 (stereo not given in full)
3. COc1ccc(/C(COc2ccc3oc(-c4ccccc4)cc(=O)c3c2)=N\O)cc1
4. C[CH2][Ge]([CH2]C)([CH2]C)[O]C(=O)C(OC(C)=O)c1ccccc1 (stereo not given)
5. CCC(C)Nc1ccc(N)cc1 (stereo not given)
6. COCc1c(-c2cc3cc(C)cc(OC)c3s2)c2c(N)ncnn2c1CN1CCNC(=O)C1
7. CCOC(=O)c1cc2c(cc1Cl)SC(=Nc1ccccc1)N(S(=O)(=O)c1ccc(Cl)cc1)S2(=O)=O

1: 2.12 µM; 2: 16.8 µM; 3: 0.65 µM; 4: > 100 µM; 5: 6.37 µM; 6: 9.38 µM; 7: 21.6 µM

###

system: CCRF-CEM leukemia; test: NCI tumour cell line growth inhibition, 48 h; in the data active = GI50 below about 0.43 µM; inactive = the rest
Use one of these outcomes when replying: 1 (active), 0 (inactive)

Field: example entries. Status: answers known.
- Compound: "COc1cc(/C=N/Nc2ncnc3c2cnn3-c2ccccc2)ccc1O"
  Target Desc: "CCRF-CEM leukemia"
  Class Label: 0
- Compound: "Cc1cc2c(cc1Cl)S/C(=C/C(=O)O)C(Nc1ccc3ncsc3c1)=NS2(=O)=O"
  Target Desc: "CCRF-CEM leukemia"
  Class Label: 0
- Compound: "CCC(C)Nc1ccc(N)cc1 (stereo unspecified)"
  Target Desc: "CCRF-CEM leukemia"
  Class Label: 0
- Compound: "CCOCCCn1c2c(c3c(O)cccc31)C(=O)c1ccccc1-2"
  Target Desc: "CCRF-CEM leukemia"
  Class Label: 0
- Compound: "Cc1ccccc1NC(=O)c1sc2nc(C)c(C(=O)/C=C/c3ccccc3)cc2c1N"
  Target Desc: "CCRF-CEM leukemia"
  Class Label: 0

Below: the item to evaluate.
Dear colleague, could you share the recorded outcome for `CNC(=O)c1c(NC(=O)c2ccc(C(C)(C)C)cc2)sc2c(CN(C)C)c(O)ccc12` when you have a moment? 0
